Target: T1, human CD40 on cells (human, UniProt P25942 21-277)
T1 construct: whole, on cells; The cell line used is named in each row's assay; also called hCD40; TNFRSF5
T1 sequence (P25942 21-277): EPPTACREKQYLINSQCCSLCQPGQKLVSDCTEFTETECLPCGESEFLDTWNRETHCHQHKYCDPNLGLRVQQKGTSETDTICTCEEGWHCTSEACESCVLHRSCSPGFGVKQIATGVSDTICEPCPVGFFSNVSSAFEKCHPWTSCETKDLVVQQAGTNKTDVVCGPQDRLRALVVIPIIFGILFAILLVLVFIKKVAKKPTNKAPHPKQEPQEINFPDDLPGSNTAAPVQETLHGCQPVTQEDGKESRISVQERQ
Assay: FACS, Raji cells
Observable: pEC50
Keep it numeric: pEC50 is minus log10 of the concentration in mol/L.

Please give the measured pEC50 for this binder: PR006496 (antibody, human IgG1, kappa, V domains shown, PR003379 variant L:N92F; human IgG1 L234A, L235A, G237A) VH: QVQLVQSGAEVKKPGASVKVSCKASGYTFAGYYMYWVRQAPGQGLEWMGWINPDSGAPTYAQKFQGRVTMTRDTSISTAYMELSRLRSDDTAVYYCAREKIYYGSGNYYPSFDYWGQGTLVTVSS VL: DIQLTQSPSFLSASVGDRVTITCRASQGISSYLAWYQQKPGKAPKLLIYAASTLQSGVPSRFSGSGSGTEFTLTISSLQPEDFATYYCQQLFSYPWTFGQGTKVEIKR 9.56

Lookup PR006492 (antibody, human IgG1, kappa, V domains shown, PR003379 variant L:N92E; human IgG1 L234A, L235A, G237A) VH: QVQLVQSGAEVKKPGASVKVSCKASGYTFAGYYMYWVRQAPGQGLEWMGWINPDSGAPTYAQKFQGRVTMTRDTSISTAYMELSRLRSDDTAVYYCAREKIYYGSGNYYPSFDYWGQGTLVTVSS VL: DIQLTQSPSFLSASVGDRVTITCRASQGISSYLAWYQQKPGKAPKLLIYAASTLQSGVPSRFSGSGSGTEFTLTISSLQPEDFATYYCQQLESYPWTFGQGTKVEIKR 9.38
